Measured values drawn from ChEMBL document CHEMBL1156597 for this set.

# System: LoVo
# METHOD_SUMMARY: Cytotoxicity against human doxorubicin resistant LoVo cells after 48 hrs by SRB assay
# Assay type: functional
OBSERVATION_TYPE: GI50 (µM)

- SMILES_REPR: "C/C=C1\\NC(=O)[C@H](Cc2ccc(Cl)c(Cl)c2)NC(=O)[C@@H](C(C)C)NC(=O)[C@@H]([C@H](C)CC)NC(=O)[C@H](NC(=O)[C@H](NC(=O)[C@H](CCCN)NC(=O)[C@H]2CCCN2C(=O)[C@H](NC(=O)[C@@H](NC(=O)[C@@H](NC(=O)[C@H](NC(=O)CC[C@@H](C)CC)C(C)C)[C@@H](C)O)C(C)C)C(C)C)[C@H](C)CC)[C@H](C)OC(=O)[C@H](C(C)C)NC1=O"
  TARGET_SYSTEM: "LoVo"
  OBSERVATION_TYPE: "GI50"
  DATA_VALUE: 0.299
- SMILES_REPR: "C/C=C1\\NC(=O)[C@H](Cc2c(F)c(F)c(F)c(F)c2F)NC(=O)[C@@H](C(C)C)NC(=O)[C@@H]([C@H](C)CC)NC(=O)[C@H](NC(=O)[C@H](NC(=O)[C@H](CCCN)NC(=O)[C@H]2CCCN2C(=O)[C@H](NC(=O)[C@@H](NC(=O)[C@@H](NC(=O)[C@H](NC(=O)CC[C@@H](C)CC)C(C)C)[C@@H](C)O)C(C)C)C(C)C)[C@H](C)CC)[C@H](C)OC(=O)[C@H](C(C)C)NC1=O"
  TARGET_SYSTEM: "LoVo"
  OBSERVATION_TYPE: "GI50"
  DATA_VALUE: 0.496

---

# Tested on: HT-29
# METHOD_SUMMARY: Cytotoxicity against human HT29 cells after 48 hrs by SRB assay
# Type: functional, cell-based
# SETUP_CONDITIONS: Homo sapiens, HT-29, 48 h; read-out: LC50 (the source's name)
Please map values of CC50 to classes as shown: group A = under 300 nM, group B = from 300 nM up to 700 nM, group C = 700 nM and over

- SMILES_REPR: "C/C=C1\\NC(=O)[C@H](Cc2ccccc2)NC(=O)[C@@H](C(C)C)NC(=O)[C@@H]([C@H](C)CC)NC(=O)[C@H](NC(=O)[C@H](NC(=O)[C@H](CCCNC(=O)C(F)(F)F)NC(=O)[C@H]2CCCN2C(=O)[C@H](NC(=O)[C@@H](NC(=O)[C@@H](NC(=O)[C@H](NC(=O)CC[C@@H](C)CC)C(C)C)[C@@H](C)O)C(C)C)C(C)C)[C@H](C)CC)[C@H](C)OC(=O)[C@H](C(C)C)NC1=O"
  QUALITATIVE_LABEL: "group B"
- SMILES_REPR: "C/C=C1\\NC(=O)[C@H](Cc2ccccc2)NC(=O)[C@@H](C(C)C)NC(=O)[C@@H]([C@H](C)CC)NC(=O)[C@H](NC(=O)[C@H](NC(=O)[C@H](CCCN)NC(=O)[C@H]2CCCN2C(=O)[C@H](NC(=O)[C@@H](NC(=O)[C@@H](NC(=O)[C@H](NC(=O)CC[C@H](C)CC)C(C)C)[C@@H](C)O)C(C)C)C(C)C)[C@H](C)CC)[C@H](C)OC(=O)[C@H](C(C)C)NC1=O"
  QUALITATIVE_LABEL: "group B"
- SMILES_REPR: "C/C=C1\\NC(=O)[C@H](Cc2ccccc2)NC(=O)[C@@H](C(C)C)NC(=O)[C@@H]([C@H](C)CC)NC(=O)[C@H](NC(=O)[C@H](NC(=O)[C@H](CCCN)NC(=O)[C@H]2CCCN2C(=O)[C@H](NC(=O)[C@@H](NC(=O)[C@@H](NC(=O)[C@H](NC(=O)CCCC(C)C)C(C)C)[C@@H](C)O)[C@@H](C)O)C(C)C)[C@H](C)CC)[C@H](C)OC(=O)[C@H](C(C)C)NC1=O"
  QUALITATIVE_LABEL: "group C"
- SMILES_REPR: "C/C=C1\\NC(=O)[C@H](Cc2ccccc2)NC(=O)[C@@H](C(C)C)NC(=O)[C@@H]([C@H](C)CC)NC(=O)[C@H](NC(=O)[C@H](NC(=O)[C@H](CCCN)NC(=O)[C@H]2CCCN2C(=O)[C@H](NC(=O)[C@@H](NC(=O)[C@@H](NC(=O)[C@H](NC(=O)CCCCCCCCCCCCCCC)C(C)C)[C@@H](C)O)C(C)C)C(C)C)[C@H](C)CC)[C@H](C)OC(=O)[C@H](C(C)C)NC1=O"
  QUALITATIVE_LABEL: "group A"
- SMILES_REPR: "C/C=C1\\NC(=O)[C@H](Cc2ccccc2)NC(=O)[C@@H](C(C)C)NC(=O)[C@@H]([C@H](C)CC)NC(=O)[C@H](NC(=O)[C@H](NC(=O)[C@H](CCCN)NC(=O)[C@H]2CCCN2C(=O)[C@H](NC(=O)[C@@H](NC(=O)[C@@H](NC(=O)[C@H](NC(=O)c2ccc(C(F)(F)F)cc2)C(C)C)[C@@H](C)O)C(C)C)C(C)C)[C@H](C)CC)[C@H](C)OC(=O)[C@H](C(C)C)NC1=O"
  QUALITATIVE_LABEL: "group A"
- SMILES_REPR: "C/C=C1\\NC(=O)[C@H](Cc2ccccc2)NC(=O)[C@@H](C(C)C)NC(=O)[C@@H]([C@H](C)CC)NC(=O)[C@H](NC(=O)[C@H](NC(=O)[C@H](CCCN)NC(=O)[C@H]2CCCN2C(=O)[C@H](NC(=O)[C@@H](NC(=O)[C@H](Cc2ccccc2)NC(=O)[C@H](NC(=O)CCCC(C)C)C(C)C)C(C)C)C(C)C)[C@H](C)CC)[C@H](C)OC(=O)[C@H](C(C)C)NC1=O"
  QUALITATIVE_LABEL: "group A"
- SMILES_REPR: "C/C=C1\\NC(=O)[C@H](Cc2ccccc2)NC(=O)[C@@H](C(C)C)NC(=O)[C@@H]([C@H](C)CC)NC(=O)[C@H](NC(=O)[C@H](NC(=O)[C@H](CCCN)NC(=O)[C@H]2CCCN2C(=O)[C@H](NC(=O)[C@@H](NC(=O)[C@@H](NC(=O)[C@H](NC(=O)c2ccccc2)C(C)C)[C@@H](C)O)C(C)C)C(C)C)[C@H](C)CC)[C@H](C)OC(=O)[C@H](C(C)C)NC1=O"
  QUALITATIVE_LABEL: "group B"
- SMILES_REPR: "C/C=C1\\NC(=O)[C@H](Cc2ccccc2)NC(=O)[C@@H](C(C)C)NC(=O)[C@@H]([C@H](C)CC)NC(=O)[C@H](NC(=O)[C@H](NC(=O)[C@H](CCCN)NC(=O)[C@H]2CCCN2C(=O)[C@H](NC(=O)[C@@H](NC(=O)[C@H](CCC(N)=O)NC(=O)[C@H](NC(=O)CCCC(C)C)C(C)C)C(C)C)C(C)C)[C@H](C)CC)[C@H](C)OC(=O)[C@H](C(C)C)NC1=O"
  QUALITATIVE_LABEL: "group B"
- SMILES_REPR: "C/C=C1\\NC(=O)[C@H](Cc2ccccc2)NC(=O)[C@@H](C(C)C)NC(=O)[C@@H]([C@H](C)CC)NC(=O)[C@H](NC(=O)[C@H](NC(=O)[C@H](CCCN)NC(=O)[C@H]2CCCN2C(=O)[C@H](NC(=O)CCCCCCCCCCCCC)C(C)C)[C@H](C)CC)[C@H](C)OC(=O)[C@H](C(C)C)NC1=O"
  QUALITATIVE_LABEL: "group C"
- SMILES_REPR: "CC[C@@H](C)[C@@H](NC(=O)[C@H](CCCN)NC(=O)[C@H]1CCCN1C(=O)[C@H](NC(=O)[C@@H](NC(=O)[C@@H](NC(=O)[C@H](NC(=O)CCCC(C)C)C(C)C)[C@@H](C)O)C(C)C)C(C)C)C(=O)N[C@H]1C(=O)N[C@H]([C@H](C)CC)C(=O)N[C@H](C(C)C)C(=O)N[C@@H](Cc2ccccc2)C(=O)N[C@H](CC)C(=O)N[C@@H](C(C)C)C(=O)O[C@H]1C"
  QUALITATIVE_LABEL: "group C"
